Values from PubChem BioAssay (NCI)

- Tested on: BT-549 breast
- Measurement notes: NCI tumour cell line growth inhibition, 48 h; in the data active means GI50 below about 0.43 µM; inactive means the rest
Write down one outcome, taken from active, inactive

Query :: Hi team, can someone confirm the assay call for `Clc1cccc(Cn2cc(Cc3cn(Cc4cccc(Cl)c4)c4ccccc34)c3ccccc32)c1` ?
Result :: inactive

Query :: Please state the recorded outcome for this compound: `O=C(Nc1cccnc1)c1cccs1`
Result :: inactive

Query :: State the result this test recorded for `O=C(c1ccc(F)c(F)c1Nc1ccc(I)cc1F)N1CC(O)([C@H]2CCCCN2)C1` .
Result :: inactive

Query :: Hi team, can someone confirm the assay call for `CCOc1ccc(/C=N/Nc2cc(C)nc3ccc(Cl)cc23)cc1` ?
Result :: inactive

Query :: Outcome logged for `CN(C)c1cc2c(Nc3ccc4nc(Cc5ccccc5)[nH]c4c3)ncnc2cn1` in this assay:
Result :: inactive

Query :: Any idea what this test logged for `Cc1cc(N2CCOCC2)nc(N(CCNc2ccnc3cc(Cl)ccc23)Cc2ccco2)n1` ?
Result :: inactive

Query :: Status in this test for `Cc1ccccc1NC(=O)N/C(N)=N/c1nc2ccccc2s1` ?
Result :: active

Query :: # fetch the recorded call for `O=C(/C=C/c1ccccc1Cl)c1ccc(O)cc1` here
Result :: inactive

Query :: Record request — test call for `COc1ccc(S(=O)(=O)Nc2cc(/C=C\c3cc(OC)c(OC)c(OC)c3)cc(OC)c2OC)cc1OC`
Result :: inactive

* * *

- Tested on: HS 578T breast
- Measurement notes: NCI tumour cell line growth inhibition, 48 h; in the data active means GI50 below about 0.43 µM; inactive means the rest
Select the matching outcome among Yes for active, No for inactive

{"columns": ["Molecule", "System", "Class assignment"],
 "data": [
  ["COc1ccc(S(=O)(=O)Nc2cc(/C=C\\c3cc(OC)c(OC)c(OC)c3)cc(OC)c2OC)cc1OC", "HS 578T breast", "No"],
  ["CCCCN(CCCC)c1cc(C(=O)CCCCCN)c2ccccc2n1", "HS 578T breast", "No"],
  ["O=Cc1ncc(-c2ccc(C(F)(F)F)cc2)c(NC2CCCCCC2)n1", "HS 578T breast", "No"],
  ["Nc1nn(C(=O)Nc2ccc(Cc3ccccc3)cc2)c2ccc(Cl)cc12", "HS 578T breast", "No"],
  ["C=C1C(=O)O[C@H]2[C@H]1CC/C(COC(=O)NCc1c[nH]c3ccc(OC)cc13)=C\\CC[C@@]1(C)O[C@@H]21", "HS 578T breast", "No"],
  ["Cc1oncc1C(=O)Nc1ccc(C(F)(F)F)cc1", "HS 578T breast", "No"]
]}

Query :: What did the test return for `COc1cc(-c2nn(C)nc2-c2cc3ccccc3s2)cc(OC)c1OC` ?
Result :: Yes

Query :: Which outcome was entered for the molecule `COC(=O)c1c2c(c[n+]([O-])c1C)C(=O)C(NCc1ccccc1)=CC2=O` in this test?
Result :: No

Query :: Each molecule tested received a call. Report the one for NC(=O)c1ncn(C2OC(CO)C(O)C2O)n1 (stereo unspecified) .
Result :: No

Query :: Please share the test call associated with `O=C(c1ccc(F)c(F)c1Nc1ccc(I)cc1F)N1CC(O)([C@H]2CCCCN2)C1` .
Result :: No

Query :: // param item: `CC(C)[C@@H]1NC(=O)[C@]2(C)CSC(=N2)c2csc(n2)CNC(=O)C[C@@H](/C=C/CCS)OC1=O` ; yields the recorded call
Result :: Yes

Query :: Entry COC(=O)C1=C(C(=O)Nc2cccnc2)C2OC1(C(Cc1ccccc1)Oc1ccccc1)C1OC21 (stereo unspecified) : call = ?
Result :: No

Query :: For `O=[N+]([O-])c1ccc(Oc2cccnc2)c([N+](=O)[O-])c1` , what call appears in the results of this test?
Result :: No

Query :: Test call for this molecule, please: `CN(C)c1cc2c(cc1Sc1nc3c(N)nccc3n1CCNCC(C)(C)C)OCO2`
Result :: No

Query :: Per the records of this test, what outcome belongs to COc1cccc(C2=NN(C(C)=O)C(c3cc(OC)c(OC)c(OC)c3)C2)c1 (stereo unspecified) ?
Result :: No

Query :: Which outcome was assigned to `C=CC[Se]C(=O)c1ccccc1OC(C)=O` in this test?
Result :: No

Query :: Which outcome did this test record for the molecule `O=C(/C=C/c1ccccc1Cl)c1ccc(O)cc1` ?
Result :: No

Query :: Field: outcome | Entry: `S=C(Nc1ccc(-c2nc3ccccc3s2)cc1)Nc1ccccn1`
Result :: No

Query :: Kindly provide the recorded test outcome for the following molecule: `O=C(/C=C/c1ccccc1O)c1ccccc1`
Result :: No

Query :: Assay outcome for `COc1ccc(C2=C(Br)C(=O)OC2)cc1Cl` : what was it?
Result :: No

Query :: // param item: `Cc1nc(NC(=O)COc2cccc(/C=C3\COc4ccccc4C3=O)c2)sc1C` ; yields the recorded call
Result :: No
